// provenance: the supplement of paper PMC10065799

Tested on: c-Src;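 note: 11-residue human phosphosite peptides and single-mutation variants displayed on the E. coli surface, counted by deep sequencing, each peptide's frequency after selection divided by its frequency in the unselected input library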;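 note: frequency after pTyr selection over input frequency; kinase dosed for 20-30% of maximal phosphorylation in three min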
Experiment: phosphorylation enrichment, bacterial display (enrichment ratio); higher = better substrate or ligand; peptides without Tyr show the background
readout_label: phosphorylation enrichment
Form: value (number only, do not type unit).

KKKKQYKGKYL [CASK_Y708_D710G] yielded phosphorylation enrichment of 0.75

QLAPQYTFAQG [FLNA_Y1761_YF] yielded phosphorylation enrichment of 0.599

DRLANYLEKVR [KRT40_Y103_S102N] yielded phosphorylation enrichment of 0.395

LLEGKYEWQEV [CDKN1B_Y74_P69L] yielded phosphorylation enrichment of 1.01

LTVVIYVLVGR [EPHA3_Y561_I564V] yielded phosphorylation enrichment of 0.183

RLASVYTKRCS [CPT2_Y508_P504L] yielded phosphorylation enrichment of 0.557
